Below is a list of entries, each paired with its recorded IC50 value.
protocol: Cytotoxicity against human NU04 cells assessed as inhibition of cell growth measured after 72 hrs by MTT assay
Assay type: functional, cell-based
condition.label: Homo sapiens, 72 h; read-out: IC50
readout.label: IC50 (µM)

- CCN(CC)S(=O)(=O)c1ccc(C(=O)/C=C/c2cccc(C#N)c2)cc1: 19.9
- N#Cc1ccc(/C=C/C(=O)c2ccc(O)c(C(F)(F)F)c2)cc1: 10.4
- COC(=O)c1cccc(/C=C/C(=O)c2cccc(O)c2)c1: 22.7
- N#Cc1cccc(/C=C/C(=O)c2ccc(S(=O)(=O)Nc3ccccc3)cc2)c1: 18.7
- N#Cc1ccc(/C=C/C(=O)c2ccc(O)c(F)c2)cc1: 15.8
- CCN(CC)S(=O)(=O)c1ccc(C(=O)/C=C/c2cccc(O)c2)cc1: 19.2

Every entry's value here was drawn from ChEMBL document CHEMBL4390639.
